- system-under-test: Serine/threonine-protein kinase PAK 5 (Homo sapiens) (UniProt Q9P286)
- Sequence (Q9P286 whole entry, looked up): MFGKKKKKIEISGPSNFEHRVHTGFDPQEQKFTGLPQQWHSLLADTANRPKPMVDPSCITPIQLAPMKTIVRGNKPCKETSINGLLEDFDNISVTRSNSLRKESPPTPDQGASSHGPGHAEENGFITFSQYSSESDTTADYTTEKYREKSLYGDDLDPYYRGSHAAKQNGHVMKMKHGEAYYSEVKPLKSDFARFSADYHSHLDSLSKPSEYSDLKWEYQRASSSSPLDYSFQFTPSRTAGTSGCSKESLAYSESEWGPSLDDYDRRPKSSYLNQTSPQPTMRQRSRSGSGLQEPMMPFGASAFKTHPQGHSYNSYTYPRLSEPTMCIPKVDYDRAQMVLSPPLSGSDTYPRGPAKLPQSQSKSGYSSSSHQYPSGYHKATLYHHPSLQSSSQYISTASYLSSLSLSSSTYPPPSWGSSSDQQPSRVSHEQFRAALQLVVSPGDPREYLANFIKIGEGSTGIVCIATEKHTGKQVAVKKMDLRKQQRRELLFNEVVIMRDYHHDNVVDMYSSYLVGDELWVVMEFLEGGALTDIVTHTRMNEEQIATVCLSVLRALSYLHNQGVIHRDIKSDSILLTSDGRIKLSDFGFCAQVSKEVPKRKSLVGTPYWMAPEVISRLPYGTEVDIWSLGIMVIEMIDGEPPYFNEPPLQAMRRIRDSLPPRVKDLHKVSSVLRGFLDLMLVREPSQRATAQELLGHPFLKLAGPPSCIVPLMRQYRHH
- experimental-protocol: Percentage PAK5 activity remaining in the presence of 0.1uM inhibitor
True means recorded Activity is 80% or above; False means it is below 80%.

# example entries with known answers
CC(C)CCN1c2nc(Nc3cc(F)c(O)c(F)c3)ncc2N(C)C(=O)C1C (stereo unspecified); True
Cc1n[nH]c2ccc(-c3cncc(OC[C@@H](N)Cc4c[nH]c5ccccc45)c3)cc12; True

Read the next record carefully.
Input line: Assess whether reported Activity for CC(C)[C@H](CO)Nc1nc(Nc2cccc(Cl)c2)c2ncn(C(C)C)c2n1 [PURVALANOLA] sits at 80% or higher.
Output line: False
